The values you see were collected from patent US20030206932A1.

# δN − δRETINOL values compiled below
protocol.description: Solubility parameter δ estimated from tabulated molecular substituent constants (Fedors)
experimental.parameters: difference to the solubility parameter of retinol
assay.endpoint: δN − δRETINOL

> print(dat)
                                   molecule  assay.endpoint        measured.value
1  CCCCC(CC)COC(=O)c1ccc(N(C)C)cc1 (centres unmarked)   δN − δRETINOL  −0.33 (cal/cm^3)^1/2
2  CCCCC(CC)COC(=O)C=Cc1ccc(OC)cc1 (centres unmarked) [Octyl Methoxy Cinnamate]   δN − δRETINOL  −0.29 (cal/cm^3)^1/2
3  CC1CC(OC(=O)c2ccccc2O)CC(C)(C)C1 (centres unmarked) [Homomenthyl Salicylate]   δN − δRETINOL   1.14 (cal/cm^3)^1/2
4  CC1CCC(C(C)C)C(OC(=O)c2ccccc2N)C1 (centres unmarked) [Menthyl Anthranilate]   δN − δRETINOL   0.13 (cal/cm^3)^1/2
5  CCCCC(CC)COC(=O)C(C#N)=C(c1ccccc1)c1ccccc1 (centres unmarked)   δN − δRETINOL   0.74 (cal/cm^3)^1/2
